# Tested on: Human papillomavirus type 1a E7 protein (residues 1-88)
# assay notes: HPV1a E7 small-molecule binders, primary screen, biochemical, small-molecule microarray, residues 1-88, 635 nm (AID 1129)
# settings: small-molecule microarray binding, fluorescence 635 nm; higher = more signal
The threshold is inclusive: composite z-score of exactly -1 counts as TRUE; values below receive FALSE.

Example results:
{"columns": ["molecule", "study target", "discrete label"],
 "data": [
  ["CO[C@H]1O[C@H](CO)[C@@H](OC(=O)Nc2ccccc2)[C@H](OC(=O)Nc2ccc3c(c2)OCO3)[C@@H]1OC(=O)Nc1ccc2c(c1)OCO2", "Human papillomavirus type 1a E7 protein (residues 1-88)", "TRUE"],
  ["CCCNC(=O)[C@@H]1c2ccccc2C(=O)N(Cc2cc(F)cc(C(F)(F)F)c2)[C@H]1c1ccc(CO)cc1", "Human papillomavirus type 1a E7 protein (residues 1-88)", "TRUE"],
  ["COC(=O)[C@@]1(Cc2ccc(OC)cc2)[C@H]2c3cc(C(=O)N(C)C)n(CCc4ccc(OC)c(Br)c4)c3C[C@H]2CN1C(=O)c1ccccc1", "Human papillomavirus type 1a E7 protein (residues 1-88)", "TRUE"],
  ["CCC(=O)[C@]12O[C@@]3([C@@H]4C(=O)OCC[C@@H]41)N(Cc1ccccc1)C(C)=C(C(=O)OC)[C@@H](c1ccccc1)N3C2=O", "Human papillomavirus type 1a E7 protein (residues 1-88)", "FALSE"],
  ["C=C(CCCC)C(=O)CC[C@@H](OC(C)=O)c1ccccc1OCCO", "Human papillomavirus type 1a E7 protein (residues 1-88)", "TRUE"],
  ["CO[C@H]1COC(=O)CC=C[C@H](C)[C@@H](OC)COC(=O)CC=C[C@@H]1C", "Human papillomavirus type 1a E7 protein (residues 1-88)", "FALSE"]
]}

Qu. Given the entry CCC#CCN(Cc1ccccc1Br)[C@H](/C=C/c1ccccc1)[C@@H](O)Cc1ccccc1 , answer whether its composite z-score meets or surpasses -1.
Ans. TRUE

Qu. Could you verify whether the entry CN1C(=O)C2C=CC(C(O)C3CC=CCC3)N(Nc3ccccc3)C2C1=O (stereo unspecified) shows composite z-score of no less than -1?
Ans. TRUE

Qu. Check if composite z-score >= -1 (inclusive). Item: COc1ccc([Si](C)(C)[C@H]2[C@H](CC(=O)N(CCO)Cc3ccccc3)O[C@@]3(C(=O)N(C)c4ccccc43)[C@@H]2C)cc1
Ans. TRUE

Qu. Does CO[C@@H]1COC(=O)CC=C[C@H](C)COC(=O)[C@H](Cc2ccccc2)NC(=O)CC=C[C@H]1C have a reported composite z-score of at least -1?
Ans. FALSE

====

# Tested on: Neuregulin-1 EGF-like domain
# assay notes: binders of neuregulin-1 EGF-like domain, primary screen, biochemical, small-molecule microarray, 635 nm fluorescence (AID 1081);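 also: binding of the protein to compounds printed on small-molecule microarray slides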
# settings: small-molecule microarray binding, higher = more signal
parameter: composite z-score
Please reply with the number alone, leaving off any unit.

Here are 5 compounds together with their reported answers.
{"columns": ["record smiles", "composite z-score"],
 "data": [
  ["CC(C)[Si]1(C(C)C)O[C@@H](c2ccccc2)c2cc(C3CC3)nc(-c3ccc(Oc4ccccc4)cc3)c21", -0.985],
  ["O=C1O[C@@H](c2ccccc2)[C@@H](c2ccccc2)N2[C@@H](c3ccccc3OCCO)[C@]3(C(=O)Nc4ccc(C#CC5=CCCCC5)cc43)[C@@H](C(=O)O)[C@H]12", 1.1],
  ["CO[C@H]1COC(=O)[C@H](C)NC(=O)CC=C[C@@H](C)[C@H](NS(=O)(=O)c2ccc(C)cc2)COC(=O)[C@@H](OCc2ccccc2)C=C[C@@H]1C", -0.477],
  ["CCOC(=O)[C@H]1C/C=C/C[C@H](C(=O)OCC)C(=O)O[C@H]2[C@@H](OC)O[C@H](CO)[C@@H](OC(=O)Nc3ccc(Br)cc3)[C@@H]2OC1=O", 1.29],
  ["Cc1ccc(S[C@]2(C(=O)NC3CC3)CC(=O)N(Cc3cc(C(F)(F)F)cc(C(F)(F)F)c3)[C@@H]2c2ccc(CO)cc2)cc1", 1.24]
]}

We next turn to a different compound, shown below.
Qu. Indicate the recorded composite z-score value for this compound: [N-]=[N+]=NCc1ccccc1C[C@@]1(C(=O)O)N=C(c2ccc(OCCCO)cc2)O[C@@H]1c1ccccc1N=[N+]=[N-]
Ans. 1.22

====

# assay notes: basal RPMI8226 mitochondrial membrane potential changes, profiling panel, cell-based, JC-1 fluorescence, 24 h, 100 nL compound (AID 1169); also: test concentration not given here
# settings: RPMI8226 myeloma, JC-1 mitochondrial potential fluorescence, higher = more signal
Would you mind labelling by z-score? At or over -0.5 is Satisfied, under is Not satisfied.

{"columns": ["molecule", "discrete label"],
 "data": [
  ["CCN1C(C)=C(C(=O)OC)[C@@H](c2ccccc2)N2C(=O)[C@](O)(C(=O)OC)[C@@H](c3ccccc3)C(C(C)=O)=C12", "Satisfied"],
  ["C=CCc1cccc([C@H]2N[C@H](C(=O)O)CC[C@@H]2C)c1", "Satisfied"],
  ["CO[C@H]1COC(=O)CC=C[C@@H](C)COC(=O)[C@@H](C)NC(=O)CC=C[C@@H]1C", "Satisfied"],
  ["O=C1OCCC/C=C\\[C@H]2OC34C=CCN(CCN5CCOCC5)C(=O)[C@H]3N(CCCCCO)C(=O)[C@@H]4C12 (some centres undefined)", "Satisfied"],
  ["COC(=O)c1c(CC[C@@H](CO)NC(=O)N[C@H](Cn2cc(-c3cncn3C)nn2)C(C)C)oc(C(C)=O)c1C(=O)OC", "Satisfied"]
]}

Qu. Check if z-score >= -0.5 (inclusive). Item: C=C(CCCC)/C(=C/C[C@H](OC(=O)c1ccncc1)c1cccc(OCCO)c1)c1cc(C(=O)OC)ccc1OC
Ans. Satisfied

Qu. Would you say COCCCNC(=O)[C@@]1(c2ccc([N+](=O)[O-])cc2)CC(=O)N(C2CCCCC2)[C@@H]1c1ccc(CO)cc1 shows z-score at minimum -0.5?
Ans. Satisfied

Qu. Record CCOC(=O)C[C@H]1[C@H](OC(=O)c2ccccc2-c2ccccc2)[C@@H](NC(=O)c2ccc(-c3ccccc3)cc2)c2cc(OCCCO)ccc2N1C(=O)Cc1ccc(OC)cc1 ; criterion: z-score no lower than -0.5. Met?
Ans. Not satisfied

Qu. Reported z-score reaches at least -0.5 for C=CCC(OC(C)=O)[C@@H]1[C@@H](N(Cc2cccc3ccccc23)C(=O)c2ccc(C)cc2)c2cc(OCCCO)ccc2N1C(=O)c1ccc(-c2ccccc2)cc1 (some centres undefined) ?
Ans. Satisfied

Qu. Does the reported z-score for CO[C@H]1O[C@H](CO)[C@@H](OC(=O)Nc2ccc(Oc3ccccc3)cc2)[C@H](OC(=O)Nc2ccccc2-c2ccccc2)[C@H]1OC(=O)Nc1ccccc1-c1ccccc1 fall at or above the -0.5 mark?
Ans. Not satisfied

Qu. Is it the case that Cc1cc(C)c(C(O)C2C=CC3C(=O)N(C)C(=O)C3N2N2CCCCC2)c(C)c1 (centres undefined) has z-score reaching or exceeding -0.5?
Ans. Satisfied

Qu. Has O=C1C2C=CC(C(O)Cc3ccccc3)N(Nc3ccc([N+](=O)[O-])cc3)C2C(=O)N1c1ccccc1 (centres undefined) a recorded z-score greater than or equal to -0.5?
Ans. Satisfied

Qu. Form field: z-score at least -0.5? Entry: N#Cc1ccc(NN2C(C(O)c3ccc(I)cc3)C=CC3C(=O)N(c4ccccc4)C(=O)C32)cc1 (centres undefined)
Ans. Not satisfied

Qu. z-score >= -0.5 for C=C(C(=O)CC[C@H](OC(=O)c1ccccc1-c1ccccc1C(=O)O)c1ccc(CO)o1)C(C)C ?
Ans. Satisfied

Qu. Is reported z-score greater than or equal to -0.5 here: C[C@H]1C2[C@H](Cc3ccccc3)NC(=O)[C@]23C(=O)N[C@H](Cc2ccccc2)C(=O)N[C@@H](Cc2ccccc2)C(=O)NC/C=C\C/C=C/C3[C@@H]2O[C@]12C (some centres undefined)
Ans. Not satisfied

Qu. Is z-score at least -0.5? Consider CC1=C([C@H](O)CCc2ccccc2)[C@H](CO)[C@@H]2C(=O)N(Cc3ccccc3)C(=O)[C@@H]2C1
Ans. Satisfied

====

# assay notes: anti-His antibody binders, primary screen, artefact control for SMM control protein annotation, biochemical, small-molecule microarray, 635 nm fluorescence (AID 1128);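 also: score merges feature fluorescence with signal-to-noise for each printed compound spot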
# settings: anti-His Alexa647 antibody binding, higher = more signal
# composite z-score annotations
API note: the answer field is a bare number with no unit suffix.

{"columns": ["molecule", "composite z-score"],
 "data": [
  ["CCN1C(C)=C(C(=O)OC)[C@@H](c2ccccc2)N2C(=O)[C@@]3(C(=O)OC)O[C@@]12[C@@H]1C(=O)CCC[C@@H]13", -0.116]
]}

Qu. Please indicate composite z-score recorded for O=C1NC(=O)C2C1C=CC(C(O)C=Cc1ccc([N+](=O)[O-])cc1)N2Nc1ccccn1 (stereo not drawn)
Ans. 2.75

Qu. For the molecule NC(=O)NCC#Cc1ccc2c(c1)[C@]1(C(=O)N2)[C@H](C(N)=O)[C@H]2C(=O)O[C@H](c3ccccc3)[C@H](c3ccccc3)N2[C@@H]1c1ccccc1OCCO , give its reported composite z-score.
Ans. -0.22

Qu. Name the recorded composite z-score of the molecule listed here: COc1ccc(CCNC(=O)[C@@]2(c3ccc([N+](=O)[O-])cc3)CC(=O)N(C(C)C)[C@@H]2c2ccc(CO)cc2)cc1
Ans. -0.601

Qu. Tell me its composite z-score given O=[N+]([O-])c1ccc(C[n+]2ccc3ccc(O)cc3c2)o1 as the entry.
Ans. 0.0131

Qu. Identify measured composite z-score associated with COC(=O)C(CC#Cc1ccc2c(c1)[C@]1(C(=O)N2)[C@H](C(=O)N2CCCCCCC2)[C@H]2C(=O)O[C@H](c3ccccc3)[C@H](c3ccccc3)N2[C@@H]1c1ccc(O)cc1)C(=O)OC
Ans. -0.231

Qu. Note down composite z-score recorded for CO[C@@H]1COC(=O)[C@H](C)NC(=O)CC=C[C@@H](C)[C@H](OC)COC(=O)[C@H](C)NC(=O)CC=C[C@H]1C
Ans. 0.284
